The reader will find reported ΔTm at 1000 µM values listed item by item below.
TEST_TARGET: KIND2 (Homo sapiens)
Sequence (Q8WWL2 18-207): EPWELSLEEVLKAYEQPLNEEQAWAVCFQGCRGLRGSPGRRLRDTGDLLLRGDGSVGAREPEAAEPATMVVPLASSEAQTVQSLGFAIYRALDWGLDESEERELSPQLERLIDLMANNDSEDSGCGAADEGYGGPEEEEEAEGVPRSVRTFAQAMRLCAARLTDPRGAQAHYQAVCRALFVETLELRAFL
ASSAY_SUMMARY: Differential scanning fluorimetry (DSF) thermal shift, KIND2
CONDITION_CONTEXT: read-out: ΔTm
Please state the figure in °C; there is no need to write the unit.

The examples below pair each entry with its known result.
COMPOUND_STRUCTURE | TEST_TARGET | ΔTm at 1000 µM / °C
Cc1ccc2c(NCCN)ccnc2c1 | KIND2 (Homo sapiens) | 2
NCCNc1ccnc2cc(C(F)(F)F)ccc12 | KIND2 (Homo sapiens) | -0.4
NCCNc1ccnc2c(F)cccc12 | KIND2 (Homo sapiens) | 0.8
NCCNc1ccnc2cc(Br)ccc12 | KIND2 (Homo sapiens) | 1.2
NCCNc1ccnc2c(Cl)cccc12 | KIND2 (Homo sapiens) | 0.8
NCCNc1ccnc2cc(Oc3ccccc3)ccc12 | KIND2 (Homo sapiens) | -0.1

Next compound, ΔTm at 1000 µM to be filled in.
# query: ΔTm at 1000 µM of entry NCCNc1ccnc2cc(OCc3ccccc3)ccc12
0
